Origin of values: the supplement of paper PMC9170038

Test system: MS2 coat protein
Assay: apparent KD of MS2 coat protein; designed switch direction (-1 OFF switch, 1 ON switch): 1; higher = weaker reporter binding
Conditions: input ligand: FMN 200 uM
Where apparent KD of MS2 coat protein equals or exceeds 40 nM, the correct label is MET; where it does not, the label is NOT MET.

UUGCUCGUGUGAGGAUAUGCAGCCGUUUCGGCUGCAGAAGGUACUAUAAUACAUGAGGAUCACCCAUGUCUCUGUUGUUUAGUG [salish99_SSNG1_r04_928] (Eterna round: R96, puzzle: Same State NG 1) = NOT MET

input: Does apparent KD of MS2 coat protein meet or surpass 40 nM for AUUAUUAAUGCAGGAUAUGAUUAACAUGAGGAUCACCCAUGUGGUGUUGUGAGUAAGGAGAGUGAUCAGAAGGGCAUUUUUAUU [JMF's solution 13] (Eterna round: R96, puzzle: Same State NG 2) ?
output: MET

input: Kindly determine if apparent KD of MS2 coat protein recorded for UGGUACAUGGGAGGAUAUGGGUUGAUAACAUGAGGAUCACCCAUGUUAAAUAUGCCGAGAGGCAACUAGAAGGCCCAUGUACCU [JL SSNG1 3.00] (Eterna round: R96, puzzle: Same State NG 2) is above or exactly 40 nM.
output: NOT MET

input: Dear colleague, could you confirm whether AUUAUUUAUGCAGGAUAUGAUUAACAUGAGGAUCACCCAUGUGGUGUUGUGAGUAAGGAGAGUGAUCAGAAGGGCAUUUUGUUU [JMF's solution 51] (Eterna round: R96, puzzle: Same State NG 2) has apparent KD of MS2 coat protein at or above 40 nM?
output: MET

input: Answer whether apparent KD of MS2 coat protein of GGAAAGAGGUAAGGAUAUGCAUGGCUGGGACAUGAGGAUCACCCAUGUAAUAGAAGAAAUCUAGGGUAGAAGGUACAAGGAAGG [AK SSNG2-V2-9] (Eterna round: R96, puzzle: Same State NG 2) is greater than or equal to 40 nM.
output: MET

---

Test system: MS2 coat protein
Test: apparent KD of MS2 coat protein; designed switch direction (-1 OFF switch, 1 ON switch): -1; higher = weaker reporter binding
Settings: input ligand: none
In this section, each of the sequences is paired with its reported apparent KD of MS2 coat protein.
Field: numeric (nM). Do not append units.

Use these answered entries as a reference point.
AUUGAUAGCACAGGAUAUUGAGAUUUGAAUUGACAAGAAGGGUGUACAUGAGGAUCACCCAUGUAAUGGUUGCCUCGUUGAUUA [JR_ExcNG1_Sub004] (Eterna round: R96, puzzle: Exclusion NG 1) = 148
GCAGACGUAGUGAGGAUAUGCUCUACCUCGGUAGAGCAGAAGGCACAUGAGGAUCACCCAUGUGGCUCCUCAUU [Omei Ex4B B22] (Eterna round: R97, puzzle: Brourd's mod of Exclusion 4) = 15
GUACAACAUGAGGAUCACCCAUGUGAGGAUAUGCGAAUUUCAUCAAAAGAUGAAAUUUGCAGAAGGCACAGUAC [Omei Ex1 A8] (Eterna round: R97, puzzle: Exclusion 1) = 32.8
AGUCAGGCGGUAGGAUAUCCAUAUCGAGUGACCCUUUCAUAACAUGAGGAUCACCCAUGUCGGUGGGAGAAGGGCCGUACGGCA [Mat - Exclusion NG 2 - Mod of JL - D68] (Eterna round: R96, puzzle: Exclusion NG 2) = 89.3
AAUUAGCAAGCGAGAUCCCACAUGAGGAUCACCCAUGUGCUCGUCUUAUAUAAGGUACUGUACGAAAGUACGGUACC [Mat - Sensor, turn-off var - Eli Mod - D31] (Eterna round: R97, puzzle: Sensor, turn-off variant 1) = 16.4
GAGUUAACAUGAGGAAUAUACAUGAGGAUCACCCAUGUUAACAAAUUUAUUGCUCGUCUUAUAACAACAAUUAACUC [Alarm 5 - Jieux - Sensor, turn-off variant 1] (Eterna round: R97, puzzle: Sensor, turn-off variant 1) = 111

input: Fill blank: measured apparent KD of MS2 coat protein of the sequence AGUACUAUGCGAGCUGACUUGCGUAGUGCAGCAAGUGAAACAUGAGGAUCACCCAUGUCCUCAUUUGCUCGUCUUAU [Mat - Sensor v3 - Turn-off var 2 - D1] (Eterna round: R96, puzzle: Sensor v3, turn-off variant 2) is ____.
output: 34.1

input: Query (sequence): ACGACCUGAGGAUAUACAUGAGGAUCACCCAUGUAUGCAACAGCCGGGAAAUCCCGAUGUAGAAGGCAGGAAAA [Eternabot (Original) Solution 26] (Eterna round: R97, puzzle: Exclusion 3) ; field requested: apparent KD of MS2 coat protein
output: 32.2

input: Please look up its apparent KD of MS2 coat protein: CGCGCCUUUGUCAGGAUAUUCGGACGAGCCCGGCCGGAGAAGGGACUUGAGGAUCACCCAAGUGACGCGAAGAC [Anrearra] (Eterna round: R97, puzzle: Brourd's mod of Exclusion 4)
output: 31.9
